System Name: human CGT (ceramide galactosyltransferase), CHO/CGT lysate (Homo sapiens, UniProt Q16880)
Construct: Full-length human CGT cDNA was cloned into the BamH1/Xho1 site of pcDNA3.1 (+); expressed in transfected cells; host or cells: Chinese hamster ovary (CHO) cells; lysate prepared with M-PER
Sequence (Q16880 21-541): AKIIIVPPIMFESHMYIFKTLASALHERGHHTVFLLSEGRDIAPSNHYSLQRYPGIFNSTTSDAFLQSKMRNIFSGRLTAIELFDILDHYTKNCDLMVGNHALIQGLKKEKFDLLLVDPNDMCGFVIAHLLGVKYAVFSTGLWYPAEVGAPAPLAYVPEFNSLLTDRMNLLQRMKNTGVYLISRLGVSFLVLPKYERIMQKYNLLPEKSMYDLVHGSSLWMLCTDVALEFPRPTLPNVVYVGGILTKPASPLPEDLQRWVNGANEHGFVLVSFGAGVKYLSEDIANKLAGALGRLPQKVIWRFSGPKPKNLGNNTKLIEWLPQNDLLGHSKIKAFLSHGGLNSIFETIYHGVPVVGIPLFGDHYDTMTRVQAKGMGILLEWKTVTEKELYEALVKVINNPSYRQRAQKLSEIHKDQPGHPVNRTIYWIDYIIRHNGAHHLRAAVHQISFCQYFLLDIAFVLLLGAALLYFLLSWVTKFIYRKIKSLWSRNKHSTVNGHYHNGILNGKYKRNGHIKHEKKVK
Experiment: CGT enzyme assay, RapidFire/MS/MS readout with 0.01% Tween added (Table 1 ranges with two asterisks **)
Format: biochemical
Condition Parameters: CGT enzyme assay, RapidFire/MS/MS method with 0.01% Tween added (range with two asterisks **)
Counter-ions that a name gives are not always drawn.
Measured Attribute: IC50

// worked examples, IC50 included
Compound	Measured Attribute	Reported Value
NC1CCN(C(=O)[C@@H](NS(=O)(=O)c2ccc(OCC3CCCCC3)cc2)C(F)(F)c2ccc(-c3ccc(Cl)cc3)cc2)CC1 [Compound 96-1, trifluoroacetate]	IC50	1000 to 10000 nM
NC1CC2CCC(C1)N2C(=O)[C@@H](NS(=O)(=O)c1ccc2cc(OC3CCCC3)ccc2c1)C(F)(F)c1ccc(Br)cc1 (stereo partly shown)	IC50	< 1000 nM
NC1CC2CCC(C1)N2C(=O)[C@@H](NS(=O)(=O)c1ccc2cc(OC3CCCC3)ccc2c1)C(F)(F)c1ccc(-c2ccc(Cl)cc2)cc1 (stereo partly shown) [Compound 48-1, trifluoroacetate]	IC50	< 1000 nM
COc1cc(C(F)(F)[C@@H](NS(=O)(=O)c2ccc(OCC3CCCCC3)cc2)C(=O)N2CCC(N)CC2)ccc1Br	IC50	30000 to 100000 nM
COc1cc(C(F)(F)[C@@H](NS(=O)(=O)c2ccc3cc(OC4CCCC4)ccc3c2)C(=O)N2CCC(N)CC2)ccc1Br	IC50	1000 to 10000 nM
NC1CCN(C(=O)[C@H](NS(=O)(=O)c2ccc3cc(OC4CCCC4)ccc3c2)C(F)(F)c2ccc(-c3ccc(Cl)cc3)cc2)CC1 [Compound 91-2, trifluoroacetate]	IC50	1000 to 10000 nM

// below: IC50 requested for another compound
Which IC50 value belongs to NC1CCN(C(=O)[C@@H](NS(=O)(=O)c2ccc3cc(OC4CCCC4)ccc3c2)C(F)(F)c2ccc(-c3ccc(Cl)cc3)cc2)CC1 [Compound 91-1, trifluoroacetate] ?
< 1000 nM

---

System Name: human CGT (ceramide galactosyltransferase), CHO/CGT lysate (Homo sapiens, UniProt Q16880)
Construct: Full-length human CGT cDNA was cloned into the BamH1/Xho1 site of pcDNA3.1 (+); expressed in transfected cells; host or cells: Chinese hamster ovary (CHO) cells; lysate prepared with M-PER
Experiment: CGT enzyme assay, LC-MS/MS readout (Table 1 ranges without asterisk)
Type: biochemical
Condition Parameters: LC-MS/MS method (range without asterisk)
pIC50: −log10 of the molar value. Counter-ions that a name gives are not always drawn.
Measured Attribute: pIC50

Molecule	pIC50
CC[C@H](C)Oc1ccc2cc(S(=O)(=O)N[C@@H](C(=O)N3C4CCC3CC(N)C4)C(F)(F)c3ccc(Br)cc3)ccc2c1 (stereo partly drawn) [Compound 13-2]	4.52 to 5.00
NC1CC2CCC(C1)N2C(=O)[C@@H](NS(=O)(=O)c1ccc2cc(OC3CCCC3)ccc2c1)C(F)(F)c1ccc(Br)cc1 (stereo partly drawn) [Compound 5-1]	> 6.00
NC1CC2CCC(C1)N2C(=O)[C@@H](NS(=O)(=O)c1ccc(OCc2ccccc2)cc1)C(F)(F)c1ccc(Br)cc1 (stereo partly drawn) [Compound 11-1, trifluoroacetate]	4.52 to 5.00
NC1CC2CCC(C1)N2C(=O)[C@H](NS(=O)(=O)c1ccc(OCc2ccccc2)cc1)C(F)(F)c1ccc(Br)cc1 (stereo partly drawn) [Compound 11-2, trifluoroacetate]	4.00 to 4.52
CCCCCCOc1ccc(S(=O)(=O)N[C@H](C(=O)N2C3CCC2CC(N)C3)C(F)(F)c2ccc(Br)cc2)cc1 (stereo partly drawn) [Compound 23-1]	5.00 to 6.00

// below: pIC50 requested for another molecule
Short answer please: pIC50, human CGT (ceramide galactosyltransferase), CHO/CGT lysate (Homo sapiens, UniProt Q16880), entry CC[C@@H](C)Oc1ccc2cc(S(=O)(=O)N[C@H](C(=O)N3C4CCC3CC(N)C4)C(F)(F)c3ccc(Br)cc3)ccc2c1 (stereo partly drawn) [Compound 13-1]
5.00 to 6.00
